B1: Pituitary-specific positive transcription factor 1, residues 130 to 198; numbered along this chain, P28069 (parent)
chain: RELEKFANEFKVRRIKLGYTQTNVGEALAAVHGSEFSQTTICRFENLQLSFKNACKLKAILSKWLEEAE

Variants of: B1
run description: abundance fitness (aPCA) (normalised: wild type 0, dead -1); higher = more abundant; growth selection in yeast, the domain comes from the species named
run conditions: Homo sapiens
Readings of abundance fitness for the listed variants

mutation annotation	abundance fitness
E69V	-0.874
L3Y	-0.22
S50A	-0.307
L28Y	-0.711
Q48L	-0.406
S50C	-0.459
K63P	-0.303
F44I	-0.861
K58D	-0.652
K52I	-0.463
Y19A	-0.421
K63V	-0.155
A68N	-0.24
G18P	-0.608
Q48P	-0.506
E35V	-0.306
S62L	-0.144
R14S	-0.995
A27L	-0.315
L61C	-0.379
F6G	-0.688
Q48K	-0.476
K16F	-0.909
S37M	-0.823
L3F	-0.472
T39E	0.255
K58Q	-0.019
L57I	0.013
I41G	-0.976
E26D	0.205
E66G	-0.373
A7D	-0.783
E4P	-0.898
K56E	-0.132
Q21Y	-0.325
L65G	-0.791
N53T	0.131
K11F	-1.02
L49A	-0.964
A30T	-0.23
S37V	-0.833
A68R	-0.232
V31D	-0.462
S34F	-0.387
R14G	-0.8
N8Q	0.12

Where do these numbers come from? They come from the Human Domainome abundance scans (Beltran et al. 2025).
